Entries and their pIC50 values follow.
target: BRD4 Bromodomain 1 (BRD4 BD1) (Homo sapiens); construct: 44-168 and BRD4 BD2; assay: AlphaScreen binding assay, BRD4 BD1; details: His-tagged BRD4 BD1 50 nM, biotinylated H4 (1-21) K5/8/12/16 tetra-acetylated peptide 50 nM, compounds listed under IC50 range headings
pIC50: −log10 of the molar value.

A selection of reference data follows.
In [3]: df
Out[3]:
                                 smiles_str  measure       reading
0  COC(=O)N1c2ccc(C#N)c(Oc3ccccc3)c2CC[C@@H]1C    pIC50        ≤ 5.00
1  C[C@H]1CCc2c(ccc(-n3nccn3)c2Oc2ccccc2)N1C(=O)C1CC1    pIC50        ≤ 5.00
2  COC(=O)N1c2ccc(-c3cnn(C4CCNCC4)c3)c(Oc3ccc(F)c(C#N)c3)c2CC[C@@H]1C    pIC50  6.00 to 7.00

INPUT: Could you tell me which pIC50 is on file for COC(=O)N1c2ccc(-c3cnn(C4CC4)c3)c(Oc3ccccc3Cl)c2CC[C@@H]1C ?
OUTPUT: 5.00 to 6.00

INPUT: Thanks! And C[C@H]1CCc2c(ccc(-c3cnn(C4CCNCC4)c3)c2Oc2ccccc2Cl)N1C(=O)C1CC1 ?
OUTPUT: 6.00 to 7.00

INPUT: Thanks! And CC(=O)N1c2c(F)c(F)c(-c3cnn(C4CC4)c3)c(OC3CCC3)c2CC[C@@H]1C ?
OUTPUT: ≤ 5.00

INPUT: Thanks! And COC(=O)N1c2ccc(-c3cnn(C4CC4)c3)c(OC(C)(C)C(N)=O)c2CC[C@@H]1C ?
OUTPUT: 5.00 to 6.00

INPUT: Thanks! And CCCOc1c(-c2cnn(CCS(C)(=O)=O)c2)ccc2c1CC[C@H](C)N2C(=O)OC ?
OUTPUT: 5.00 to 6.00

INPUT: Thanks! And COC(=O)N1c2ccc(-c3cnn(CCO)c3)c(Oc3cnccn3)c2CC[C@@H]1C ?
OUTPUT: 5.00 to 6.00

====

biological target: BRD4 Bromodomain 1 (BRD4 BD1) (Homo sapiens); construct: 44-168 and BRD4 BD2; assay: AlphaScreen binding assay, BRD4 BD1; settings: His-tagged BRD4 BD1 50 nM, biotinylated H4 (1-21) K5/8/12/16 tetra-acetylated peptide 50 nM, compounds listed under IC50 range headings
Entries and their IC50 values follow.

A selection of reference data follows.
In [3]: df
Out[3]:
                                 smiles_str           reading
0  C[C@H]1CCc2c(ccc(-c3cnn(C4CCNCC4)c3)c2Oc2cccc(F)n2)N1C(=O)C1CC1    100 to 1000 nM
1  COC(=O)N1c2ccc(-c3cnn(CCS(C)(=O)=O)c3)c(OC[C@H]3CCNC3)c2CC[C@@H]1C  1000 to 10000 nM
2  COC(=O)N1c2ccc(-c3cnn(CCS(C)(=O)=O)c3)c(Oc3ncc(C(F)(F)F)cn3)c2CC[C@@H]1C  1000 to 10000 nM

Now consider the entry below.
INPUT: Could you tell me which IC50 is on file for COC(=O)N1c2ccc(-c3cnn(C4CCNCC4)c3)c(Oc3cc(C4CC4)ncn3)c2CC[C@@H]1C ?
OUTPUT: 1000 to 10000 nM

====

target: BRD4 Bromodomain 2 (BRD4 BD2) (Homo sapiens); construct: 333-460 were cloned, expressed, and purified to homogeneity; assay: AlphaScreen binding assay, BRD4 BD2; settings: His-tagged BRD4 BD2 100 nM, biotinylated H4 (1-21) K5/8/12/16 tetra-acetylated peptide 100 nM, compounds listed under IC50 range headings
Measure: IC50

A selection of reference data follows.
>>> print(df.to_string())
                                   compound       reading
0  COC(=O)N1c2ccc(-c3cnn(CCO)c3)c(OC3CCC3)c2CC[C@@H]1C [I-446]  50 to 500 nM
1  COC(=O)N1c2ccc(-c3cnn(CCS(C)(=O)=O)c3)c(OCC(=O)N3CCCC3)c2CC[C@@H]1C [I-463]  50 to 500 nM
2  CC(=O)N1c2ccc(-c3cnn(CC(C)(C)O)c3)c(Oc3ncc(F)cn3)c2CC[C@@H]1C [I-551]       < 50 nM
3  CC(=O)N1c2ccc(-c3ccc(N4CCCS4(=O)=O)cc3)c(OCC(=O)N(C)C)c2CC[C@@H]1C [I-499]  50 to 500 nM
4  CC(=O)N1c2ccc(-c3cnn(C4CCNCC4)c3)c(Oc3ncc(C4CC4)cn3)c2CC[C@@H]1C [I-518]  50 to 500 nM
5  COC(=O)N1c2ccc(-c3cnn(C4CCNCC4)c3)c(Oc3ncc(C)cn3)c2CC[C@@H]1C [I-535]  50 to 500 nM

INPUT: Could you tell me which IC50 is on file for COC(=O)N1c2ccc(-c3cnn(C4CN(C)C4)c3)c(Oc3ccc(F)cc3)c2CC[C@@H]1C [I-282] ?
OUTPUT: < 50 nM

INPUT: Thanks! And CC(=O)N1c2ccc(-c3cnn(C4CCNCC4)c3)c(OC[C@H]3CCC(=O)N3)c2CC[C@@H]1C [I-435] ?
OUTPUT: 50 to 500 nM

====

Entries and their IC50 values follow.
target: BRD4 Bromodomain 1 (BRD4 BD1) (Homo sapiens); construct: 44-168 and BRD4 BD2; experiment: AlphaScreen binding assay, BRD4 BD1; conditions: His-tagged BRD4 BD1 50 nM, biotinylated H4 (1-21) K5/8/12/16 tetra-acetylated peptide 50 nM, compounds listed under IC50 range headings

A selection of reference data follows.
>>> print(df.to_string())
                                 smiles_str  measure      reading
0  COC(=O)N1c2ccc(-c3cnn(C4CCOCC4)c3)c(OC3CCC3)c2CC[C@@H]1C     IC50  0.1 to 1 µM
1  C[C@H]1CCc2c(ccc(-c3cnn(C)c3)c2Oc2ccccc2)N1C(=O)C1CC1     IC50  0.1 to 1 µM
2  C[C@H]1CCc2c(ccc(-c3nnc(N)s3)c2Oc2ccccc2)N1C(=O)C1CC1     IC50  0.1 to 1 µM

Now consider the entry below.
INPUT: Could you tell me which IC50 is on file for COC(=O)N1c2ccc(-c3cnn(C4CNC4)c3)c(Oc3cc(F)ccc3F)c2CC[C@@H]1C ?
OUTPUT: 0.1 to 1 µM

====

target: BRD4 Bromodomain 2 (BRD4 BD2) (Homo sapiens, UniProt O60885); construct: 333-460 were cloned, expressed, and purified to homogeneity; assay: AlphaScreen binding assay, BRD4 BD2; details: His-tagged BRD4 BD2 100 nM, biotinylated H4 (1-21) K5/8/12/16 tetra-acetylated peptide 100 nM, compounds listed under IC50 range headings
Entries and their IC50 values follow.

A selection of reference data follows.
>>> df
                                 smiles_str  measure       reading
0  CC(=O)N1c2ccc(-c3cnn(C4CC4)c3)c(OC(C)C)c2CC[C@@H]1C     IC50  50 to 500 nM
1  CC(=O)N1c2ccc(-c3cnn(C4CC4)c3)c(Oc3ncccc3C(N)=O)c2CC[C@@H]1C     IC50  50 to 500 nM
2  COC(=O)N1c2ccc(-c3cnn(C4CC4)c3)c(OCC3(F)COC3)c2CC[C@@H]1C     IC50  50 to 500 nM

INPUT: Could you tell me which IC50 is on file for CC(=O)N1c2ccc(-c3cnn(C4CC4)c3)c(OCCC3COC3)c2CC[C@@H]1C ?
OUTPUT: 50 to 500 nM

INPUT: Thanks! And CC(=O)N1c2ccc(-c3cnn(C4CC4)c3)c(OCCN(C)C)c2CC[C@@H]1C ?
OUTPUT: ≥ 500 nM

====

target: BRD4 Bromodomain 2 (BRD4 BD2) (Homo sapiens, UniProt O60885); construct: 333-460 were cloned, expressed, and purified to homogeneity; test: AlphaScreen binding assay, BRD4 BD2; settings: His-tagged BRD4 BD2 100 nM, biotinylated H4 (1-21) K5/8/12/16 tetra-acetylated peptide 100 nM, compounds listed under IC50 range headings
pIC50: −log10 of the molar value.
Measure: pIC50

>>> print(df.to_string())
                                   compound       reading
0  CCCOc1c(C2CCN(C(=O)OC)CC2)ccc2c1CC[C@H](C)N2C(C)=O        ≤ 6.30
1  CC(=O)N1c2ccc(-c3cnn(C4CC4)c3)c(OC3CC3)c2CC[C@@H]1C  6.30 to 7.30
2  COC(=O)N1c2ccc(-c3cnn(CCO)c3)c(Oc3ncc(C(F)(F)F)cn3)c2CC[C@@H]1C  6.30 to 7.30

INPUT: Could you tell me which pIC50 is on file for C[C@H]1CCc2c(ccc(-c3cnn(C4CCNCC4)c3)c2Oc2cccc(F)c2C#N)N1C(=O)C1CC1 ?
OUTPUT: > 7.30

INPUT: Thanks! And CC(=O)N1c2ccc(-c3cnn(C4CC4)c3)c(OC[C@H]3CCNC3)c2CC[C@@H]1C ?
OUTPUT: 6.30 to 7.30

INPUT: Thanks! And CC(=O)N1c2ccc(-c3cnn(C4CC4)c3)c(OC[C@@H]3CCNC3)c2CC[C@@H]1C ?
OUTPUT: 6.30 to 7.30

INPUT: Thanks! And CCCOc1c(-c2cc3ccccc3o2)ccc2c1CC[C@H](C)N2C(C)=O ?
OUTPUT: ≤ 6.30

INPUT: Thanks! And CCCOc1c(-c2cnn(CCO)c2)ccc2c1CC[C@H](C)N2C(C)=O ?
OUTPUT: 6.30 to 7.30

INPUT: Thanks! And CC(=O)N1c2ccc(-c3cnn(C4CCNCC4)c3)c(Oc3ccccc3C#N)c2CC[C@@H]1C ?
OUTPUT: > 7.30

INPUT: Thanks! And COC(=O)N1c2ccc(-c3cnn(C4CCNCC4)c3)c(Oc3cccc(Cl)c3)c2CC[C@@H]1C ?
OUTPUT: > 7.30

INPUT: Thanks! And COC(=O)N1c2ccc(-c3cnn(C4CCNCC4)c3)c(Oc3ccc(Cl)cc3C#N)c2CC[C@@H]1C ?
OUTPUT: > 7.30
